Sourced from patent US20250120981A1

Test: Pharmacokinetics in humans, MRTX1133 formulation, oral, single and multiple doses
Assay type: in vivo
Conditions: human, plasma, po, 800 mg, multiple oral doses of 800 mg BID, fasted; 1.5 h; Mean of subjects; read-out: Plasma concentration
quantity.kind: concentration at 1.5 h (ng/mL)
Give bare numbers, in ng/mL.

// concentration at 1.5 h value for "C#Cc1c(F)ccc2cc(O)cc(-c3ncc4c(N5C[C@H]6CC[C@@H](C5)N6)nc(OC[C@@]56CCCN5C[C@H](F)C6)nc4c3F)c12" : 107

====

Test: Pharmacokinetics in humans, MRTX1133 formulation, oral, single and multiple doses
Type: in vivo
Settings: human, plasma, po, 200 mg, multiple oral doses of 200 mg BID, fasted; 0.5 h; mean of subjects; read-out: Plasma concentration, Mean
quantity.kind: concentration at 0.5 h (ng/mL)
Numbers only, in ng/mL.

Query C#Cc1c(F)ccc2cc(O)cc(-c3ncc4c(N5C[C@H]6CC[C@@H](C5)N6)nc(OC[C@@]56CCCN5C[C@H](F)C6)nc4c3F)c12 [MRTX1133] yields concentration at 0.5 h of 28.1

====

Assay: Pharmacokinetics in humans, MRTX1133 formulation, oral, single and multiple doses
Assay type: in vivo
Details: human, plasma, po, 200 mg, single oral dose of 200 mg, fasted; median of subjects (footnote b); read-out: Tmax, Median
quantity.kind: Tmax (h)
Numbers only, in h.

Entry "C#Cc1c(F)ccc2cc(O)cc(-c3ncc4c(N5C[C@H]6CC[C@@H](C5)N6)nc(OC[C@@]56CCCN5C[C@H](F)C6)nc4c3F)c12" ; Tmax = 1.5

====

Assay: Pharmacokinetics in humans, MRTX1133 formulation, oral, single and multiple doses
Format: in vivo
Conditions: human, plasma, po, 400 mg, multiple oral doses of 400 mg BID with a low-fat meal; 8 h; mean of subjects; read-out: Plasma concentration, Mean
quantity.kind: concentration at 8 h

Measured concentration at 8 h, "C#Cc1c(F)ccc2cc(O)cc(-c3ncc4c(N5C[C@H]6CC[C@@H](C5)N6)nc(OC[C@@]56CCCN5C[C@H](F)C6)nc4c3F)c12" : 23 ng/mL

====

Assay: Pharmacokinetics in humans, MRTX1133 formulation, oral, single and multiple doses
Assay type: in vivo
Details: human, plasma, po, 400 mg, single oral dose of 400 mg, fasted; 8 h; mean of subjects; read-out: Plasma concentration, Mean
quantity.kind: concentration at 8 h (ng/mL)
Answers are plain numbers, in ng/mL.

// field: concentration at 8 h; key: "C#Cc1c(F)ccc2cc(O)cc(-c3ncc4c(N5C[C@H]6CC[C@@H](C5)N6)nc(OC[C@@]56CCCN5C[C@H](F)C6)nc4c3F)c12" ; value = 23

====

Assay: Pharmacokinetics in humans, MRTX1133 formulation, oral, single and multiple doses
Type: in vivo
Details: human, plasma, po, 800 mg, single oral dose of 800 mg, fasted; Geo Mean of subjects; read-out: Cmax
quantity.kind: Cmax (ng/mL)
Give bare numbers, in ng/mL.

Form field Cmax, entry "C#Cc1c(F)ccc2cc(O)cc(-c3ncc4c(N5C[C@H]6CC[C@@H](C5)N6)nc(OC[C@@]56CCCN5C[C@H](F)C6)nc4c3F)c12" : 123

====

Test: Pharmacokinetics in humans, MRTX1133 formulation, oral, single and multiple doses
Format: in vivo
Details: human, plasma, po, 400 mg, single oral dose of 400 mg, fasted; geometric mean of subjects; read-out: AUC0-12, Geo Mean
quantity.kind: AUC(0-t) (ng·h/mL)
Give bare numbers, in ng·h/mL.

Per the records, this molecule ( C#Cc1c(F)ccc2cc(O)cc(-c3ncc4c(N5C[C@H]6CC[C@@H](C5)N6)nc(OC[C@@]56CCCN5C[C@H](F)C6)nc4c3F)c12 [MRTX1133] ) has AUC(0-t) equal to 263
